# STUDY TARGET: Nucleotide-binding oligomerization domain-containing protein 2 (Homo sapiens, UniProt Q9HC29)
# Sequence (Q9HC29 whole entry, the tested form may be a part): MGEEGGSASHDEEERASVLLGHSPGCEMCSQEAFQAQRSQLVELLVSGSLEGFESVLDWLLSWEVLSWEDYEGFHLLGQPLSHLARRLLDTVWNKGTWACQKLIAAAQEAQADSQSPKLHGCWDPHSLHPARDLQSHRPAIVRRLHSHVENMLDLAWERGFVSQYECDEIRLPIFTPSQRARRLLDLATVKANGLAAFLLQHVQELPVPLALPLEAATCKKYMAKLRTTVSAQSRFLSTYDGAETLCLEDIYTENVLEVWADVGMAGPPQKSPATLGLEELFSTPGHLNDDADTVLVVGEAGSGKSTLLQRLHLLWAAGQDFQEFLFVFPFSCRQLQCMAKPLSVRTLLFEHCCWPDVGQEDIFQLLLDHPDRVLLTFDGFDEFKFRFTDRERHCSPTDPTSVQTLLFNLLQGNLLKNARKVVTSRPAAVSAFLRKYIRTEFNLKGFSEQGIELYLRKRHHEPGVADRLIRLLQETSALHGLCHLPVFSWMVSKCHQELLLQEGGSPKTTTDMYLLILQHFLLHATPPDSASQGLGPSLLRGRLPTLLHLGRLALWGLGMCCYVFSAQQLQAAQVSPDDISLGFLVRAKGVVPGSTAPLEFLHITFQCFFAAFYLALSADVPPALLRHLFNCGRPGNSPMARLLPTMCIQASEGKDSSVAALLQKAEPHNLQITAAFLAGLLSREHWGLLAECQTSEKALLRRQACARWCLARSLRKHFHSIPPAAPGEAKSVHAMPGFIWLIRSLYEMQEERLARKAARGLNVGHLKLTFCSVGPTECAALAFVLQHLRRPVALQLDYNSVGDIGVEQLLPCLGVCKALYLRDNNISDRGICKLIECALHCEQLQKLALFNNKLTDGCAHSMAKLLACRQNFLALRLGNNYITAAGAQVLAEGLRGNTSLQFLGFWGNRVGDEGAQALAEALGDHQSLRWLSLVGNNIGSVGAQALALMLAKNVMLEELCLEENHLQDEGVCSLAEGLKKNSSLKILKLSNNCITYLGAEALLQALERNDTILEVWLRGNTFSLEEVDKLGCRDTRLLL
# TEST SUMMARY: Agonist activity at human NOD2 expressed in HEK-Blue cells assessed as induction of NF-kB transcriptional activity at 2 uM after 18 hrs in presence of NOD2 antagonist GSK-669 by SEAP reporter gene assay
# Format: cell-based
Calls of active or inactive are those of the source. No cut-off for these calls is given here.
MEASURED QUANTITY: Activity

* CCOC(=O)CC[C@@H](NC(=O)[C@@H](NC(=O)CNC(=O)C1CC1c1ccc(F)c(F)c1)C(C)C)C(=O)OCC (some centres undefined) | inactive
* CCOC(=O)CC[C@@H](NC(=O)[C@H](C)NC(=O)CNC(=O)/C=C/c1ccc(O)c(OC)c1)C(=O)OCC | inactive
* CCOC(=O)CC[C@@H](NC(=O)[C@H](Cc1ccccc1)NC(=O)CNC(=O)c1cc2ccc(-c3ccccc3)cc2[nH]1)C(=O)OCC | inactive
* CCOC(=O)CC[C@@H](NC(=O)[C@H](Cc1ccccc1)NC(=O)CNC(=O)/C=C/c1ccccc1)C(=O)OCC | inactive

---

# STUDY TARGET: Nucleotide-binding oligomerization domain-containing protein 2 (Homo sapiens)
# TEST SUMMARY: Agonist activity at human NOD2 expressed in HEK-Blue cells assessed as induction of NF-kB transcriptional activity at 2 uM after 18 hrs by SEAP reporter gene assay relative to control
# Format: cell-based
MEASURED QUANTITY: fold change (FC)

- CCOC(=O)CC[C@@H](NC(=O)[C@H](Cc1ccccc1)NC(=O)CNC(=O)[C@@H]1C[C@H]1c1ccccc1)C(=O)OCC: 5.3
- CCOC(=O)CC[C@@H](NC(=O)[C@H](Cc1ccccc1)NC(=O)CNC(=O)C1CC1c1ccc(F)c(F)c1)C(=O)OCC (some centres not stated): 5.2
- CCOC(=O)CC[C@@H](NC(=O)[C@@H](NC(=O)CNC(=O)/C=C/c1ccccc1)C(C)C)C(=O)OCC: 5.7
- CCOC(=O)CC[C@@H](NC(=O)[C@H](Cc1ccccc1)NC(=O)CNC(=O)/C=C/c1ccc(F)c(F)c1)C(=O)OCC: 5.4
- CCOC(=O)CC[C@@H](NC(=O)[C@@H](NC(=O)CNC(=O)c1cc2ccc(-c3ccccc3)cc2[nH]1)C(C)C)C(=O)OCC: 3.9
- CCOC(=O)CC[C@@H](NC(=O)[C@@H](NC(=O)CNC(=O)C1CC1c1ccc(F)c(F)c1)C(C)C)C(=O)OCC (some centres not stated): 5.8
- CCOC(=O)CC[C@@H](NC(=O)[C@H](Cc1ccccc1)NC(=O)CNC(=O)/C=C/c1ccc(O)c(OC)c1)C(=O)OCC: 5.7

---

Measured fold change (FC) by item
# STUDY TARGET: Nucleotide-binding oligomerization domain-containing protein 2 (Homo sapiens)
# TEST SUMMARY: Agonist activity at human NOD2 expressed in HEK-Blue cells assessed as induction of NF-kB transcriptional activity at 2 uM after 18 hrs by SEAP reporter gene assay relative to control
# Format: cell-based
MEASURED QUANTITY: fold change (FC)

• CC(=O)N[C@H]1C(O)O[C@H](CO)[C@@H](O)[C@@H]1O[C@H](C)C(=O)N[C@@H](C)C(=O)N[C@H](CCC(=O)O)C(N)=O (some centres not stated) [MURAMYL DIPEPTIDE] = 5.6
• CCOC(=O)CC[C@@H](NC(=O)[C@H](Cc1ccccc1)NC(=O)CNC(=O)/C=C/c1ccccc1)C(=O)OCC = 5.3
• CCOC(=O)CC[C@@H](NC(=O)[C@H](Cc1ccccc1)NC(=O)CNC(=O)c1cc2ccc(-c3ccccc3)cc2[nH]1)C(=O)OCC = 4.8
• CCOC(=O)CC[C@@H](NC(=O)[C@H](C)NC(=O)CNC(=O)/C=C/c1ccc(O)c(OC)c1)C(=O)OCC = 4.5
• CCOC(=O)CC[C@@H](NC(=O)[C@@H](NC(=O)CNC(=O)/C=C/c1ccc(F)c(F)c1)C(C)C)C(=O)OCC = 5.6
• CCOC(=O)CC[C@@H](NC(=O)[C@@H](NC(=O)CNC(=O)[C@@H]1C[C@H]1c1ccccc1)C(C)C)C(=O)OCC = 4.4
• COc1cc(/C=C/C(=O)NCC(=O)N[C@H](C(=O)N[C@H](CCC(=O)O)C(=O)O)C(C)C)ccc1O = 2.7

---

# STUDY TARGET: Nucleotide-binding oligomerization domain-containing protein 2 (Homo sapiens)
# TEST SUMMARY: Agonist activity at human NOD2 expressed in HEK-Blue cells assessed as induction of NF-kB transcriptional activity at 2 uM after 18 hrs in presence of NOD2 antagonist GSK-669 by SEAP reporter gene assay
# Assay type: cell-based
Activity calls are given as the source filed them. No cut-off for these calls is given here.
MEASURED QUANTITY: Activity

* CCOC(=O)CC[C@@H](NC(=O)[C@H](Cc1ccccc1)NC(=O)CNC(=O)/C=C/c1ccc(F)c(F)c1)C(=O)OCC | inactive
* CCOC(=O)CC[C@@H](NC(=O)[C@H](Cc1ccccc1)NC(=O)CNC(=O)/C=C/c1ccc(O)c(OC)c1)C(=O)OCC | inactive
* CC(=O)N[C@H]1C(O)O[C@H](CO)[C@@H](O)[C@@H]1O[C@H](C)C(=O)N[C@@H](C)C(=O)N[C@H](CCC(=O)O)C(N)=O (stereo partly drawn) [MURAMYL DIPEPTIDE] | inactive
